# Tested on: Botrytis cinerea
# EXPERIMENTAL DETAILS: Test for Botrytis cinerea on cucumbers: systemic activity by the water culture method
# Assay type: in vivo
# CONDITION: cucumber, 5 ppm solution, 3 days, 3 days after inoculation
# Procedure: The systemic activity of the test compound was tested by the water culture method in the following manner. The plants were pulled out from the pots carefully so as not to damage the roots, and the soil attached to the roots was well removed by water-washing. […] Percentage of control was determined by the following procedure. The rate of diseased area on the tested leaf was measured and classified in one of the six infectious indexes (0, 1, 2, 3, 4, 5) according to the undermentioned criteria. […]
Reported Disease-preventing value: Systemic activity values for the following compounds.
QUANTITY NAME: Disease-preventing value: Systemic activity (%)

>  <COMPOUND>
CCCCS(=O)(=O)N1CC(=O)N(c2cc(Cl)cc(Cl)c2)C1=O

>  <SYSTEM TESTED>
Botrytis cinerea

>  <VALUE REPORTED>
79

$$$$
>  <COMPOUND>
O=C1CNC(=O)N1c1cc(Cl)cc(Cl)c1 [reference compound]

>  <SYSTEM TESTED>
Botrytis cinerea

>  <VALUE REPORTED>
0

$$$$
>  <COMPOUND>
CC(C)S(=O)(=O)N1CC(=O)N(c2cc(Cl)cc(Cl)c2)C1=O

>  <SYSTEM TESTED>
Botrytis cinerea

>  <VALUE REPORTED>
92

$$$$
>  <COMPOUND>
CC(C)CS(=O)(=O)N1CC(=O)N(c2cc(Cl)cc(Cl)c2)C1=O

>  <SYSTEM TESTED>
Botrytis cinerea

>  <VALUE REPORTED>
63

$$$$
>  <COMPOUND>
CCC(=O)N1CC(=O)N(c2cc(Cl)cc(Cl)c2)C1=O [reference compound]

>  <SYSTEM TESTED>
Botrytis cinerea

>  <VALUE REPORTED>
0

$$$$
>  <COMPOUND>
CCCCNC(=O)n1c(NC(=O)OC)nc2ccccc21 [reference compound]

>  <SYSTEM TESTED>
Botrytis cinerea

>  <VALUE REPORTED>
91

$$$$
>  <COMPOUND>
CCCS(=O)(=O)N1CC(=O)N(c2cc(Cl)cc(Cl)c2)C1=O

>  <SYSTEM TESTED>
Botrytis cinerea

>  <VALUE REPORTED>
88

$$$$

###

Reported Degree of damage values for the following compounds.
# System: Alternaria bracissicola
# EXPERIMENTAL DETAILS: Test for Alternaria bracissicola-controlling effect (chinese cabbage)
# Type: in vivo
# CONDITION: 100 ppm active ingredient, 7 ml per pot
QUANTITY NAME: Degree of damage (%)

>  <COMPOUND STRUCTURE>
CCS(=O)(=O)N1CC(=O)N(c2cc(Cl)cc(Cl)c2)C1=O

>  <UNIT NAME>
%

>  <VALUE REPORTED>
5

$$$$
>  <COMPOUND STRUCTURE>
CCCS(=O)(=O)N1C(=O)N(c2cc(Cl)cc(Cl)c2)C(=O)C1(C)C

>  <UNIT NAME>
%

>  <VALUE REPORTED>
21

$$$$
>  <COMPOUND STRUCTURE>
O=C1CN(S(=O)(=O)CCCCl)C(=O)N1c1cc(Cl)cc(Cl)c1

>  <UNIT NAME>
%

>  <VALUE REPORTED>
2

$$$$
>  <COMPOUND STRUCTURE>
CCCS(=O)(=O)N1CC(=O)N(c2cc(Cl)cc(Cl)c2)C1=O

>  <UNIT NAME>
%

>  <VALUE REPORTED>
0

$$$$
>  <COMPOUND STRUCTURE>
CCCCS(=O)(=O)N1CC(=O)N(c2cc(Cl)cc(Cl)c2)C1=O

>  <UNIT NAME>
%

>  <VALUE REPORTED>
1

$$$$
>  <COMPOUND STRUCTURE>
CS(=O)(=O)N1CC(=O)N(c2cc(Cl)cc(Cl)c2)C1=O

>  <UNIT NAME>
%

>  <VALUE REPORTED>
7

$$$$

Reference source: patent US4056622A
